Test system: HS 578T breast
MEASUREMENT_PROTOCOL: NCI-60 one-dose screen, 48 h (100 = growth as untreated, 0 = no growth, -100 = all killed)
EXPERIMENTAL_PARAMETERS: 10 µM unless noted
This is part of a sample that, as a whole, favours compounds with a hit. Of some 83,000 tested, about 20% had one in any assay.
MEASURED_ENDPOINT: growth (%)
Answers are plain numbers, in %.

Provide each entry's growth from the list below.
1. Nc1n[nH]c2cccc(C#Cc3cccc(NC(=O)c4cc(F)cc(C(F)(F)F)c4)c3)c12
2. CC(C)(Sc1cc(C(C)(C)C)c(OC(=O)CCCC(=O)O)c(C(C)(C)C)c1)Sc1cc(C(C)(C)C)c(OC(=O)CCCC(=O)O)c(C(C)(C)C)c1
3. CCOC(=O)C1=C(N)Oc2c(sc3c(F)cccc23)C1c1ccc(O)cc1 (stereo not given)
4. CSc1nc2ccccc2cc1/C=[N+](\[O-])c1ccccc1
5. COc1cc(-c2csc(NC(=O)c3ccc(N4CCOCC4)c(C(F)(F)F)c3)n2)cc(OC)c1OC
6. CCN1CCN(C(=O)[C@]23CCC(C)(C)C[C@@H]2C2=CC[C@@H]4[C@@]5(C)CCC(=O)C(C)(C)[C@@H]5CC[C@@]4(C)[C@]2(C)CC3)CC1
7. Cc1ccc(C)n1-c1ccccc1-n1c(C)ccc1C
8. Nc1nc2ccc(-c3nc4ccc5[nH]ncc5c4c4c3CCCC4)cc2s1

Reply text:
1. 36.8
2. 57
3. 31.9
4. 74.1
5. 60
6. 40.7
7. 117
8. 99.7

###

System: SK-MEL-2 melanoma
MEASUREMENT_PROTOCOL: NCI-60 one-dose screen, 48 h (100 = growth as untreated, 0 = no growth, -100 = all killed)
EXPERIMENTAL_PARAMETERS: 10 µM unless noted
Description: Growth inhibition of the SK-MEL-2 human tumor cell line is measured as a screen for anti-cancer activity. Cells are grown in 96 well plates and exposed to the test compound for 48 hours. Compounds are tested at a single concentration, which is 10^-5 M for most compounds. The reported endpoint is percent growth (GI% or GIPRCNT), where numbers from 0 - 100% represent growth inhibition, and numbers from -100% - 0 represent cell death. For example, a value of 40 represents 60% growth inhibition. […]
This is part of a sample that, as a whole, favours compounds with a hit. Of some 83,000 tested, about 20% had one in any assay.
MEASURED_ENDPOINT: growth (%)
Numbers only, in %.

Field: example entries. Status: answers known.
So, COC(=O)[C@@H](CCCCNC(=O)[C@]12CCC(C)(C)C[C@@H]1C1=CC[C@@H]3[C@@]4(C)C/C(=C/c5ccco5)C(=O)C(C)(C)[C@@H]4CC[C@@]3(C)[C@]1(C)CC2)NC(=O)[C@]12CCC(C)(C)C[C@@H]1C1=CC[C@@H]3[C@@]4(C)C/C(=C/c5ccco5)C(=O)C(C)(C)[C@@H]4CC[C@@]3(C)[C@]1(C)CC2 ? Its growth was 108

Short answer for CCN1CCN(C(=O)[C@]23CCC(C)(C)C[C@@H]2C2=CC[C@@H]4[C@@]5(C)CCC(=O)C(C)(C)[C@@H]5CC[C@@]4(C)[C@]2(C)CC3)CC1 : growth was 77.1

Value of measured growth for the entry Clc1ccc2c(c1)C(c1c[nH]c3ccccc13)(c1c[nH]c3ccccc13)CCO2 : -52

Field: growth. Fill in for each record below.
1. N#CC1=C(N)Oc2c(ccc3ccccc23)C1c1ccccc1 (configuration not stated)
2. CC(C)Cn1cnc2c(=O)[nH]c(N)nc21
3. OCCn1cc(-c2nc(-c3c[nH]c4ncccc34)cs2)c2ccccc21

Reply text:
43.1
87.9
98.6

Short answer for CCCCCN1C(=O)/C(=c2\sc3n(c2=O)C2C(NN=3)N(CC)C(=O)N2CC)c2ccccc21 (configuration not stated) : growth was 21.3
